biological target: B1R receptor of the rat (rB1R) (Rattus norvegicus, UniProt P97583); construct: host or cells: CHO K1 cells; assay: FLIPR Ca2+ assay on rB1R-transfected CHO K1 cells, antagonistic action; assay type: cell-based; conditions: CHO-K1, 10 μM test substance; agonist Des-Arg9-bradykinin 100 nM; % of maximum achievable inhibition; read-out: rB1R [10 μM] % inhibition
Sequence (P97583 whole entry): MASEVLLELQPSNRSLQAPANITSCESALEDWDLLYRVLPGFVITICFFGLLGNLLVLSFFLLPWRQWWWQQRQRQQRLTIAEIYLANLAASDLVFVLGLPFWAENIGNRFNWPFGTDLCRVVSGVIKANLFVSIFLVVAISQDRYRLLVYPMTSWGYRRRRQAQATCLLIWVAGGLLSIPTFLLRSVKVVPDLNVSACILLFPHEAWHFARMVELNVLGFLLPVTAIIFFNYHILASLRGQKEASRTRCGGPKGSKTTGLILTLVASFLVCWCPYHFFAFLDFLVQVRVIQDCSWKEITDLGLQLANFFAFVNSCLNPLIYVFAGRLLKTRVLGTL
Could you please report measured inhibition at 10 µM for the items listed next?
Give bare numbers, in %.

Okay, here is my list. What is inhibition at 10 µM for each of these?
1. CN(C)C1(c2ccccc2)CCC(NC(=O)COC2CCN(S(=O)(=O)c3c(Cl)cc(Cl)cc3Cl)C2)CC1 (stereo not drawn)
2. COc1cc(C)c(S(=O)(=O)N(C)CCOCC(=O)NCC2CCC(Cc3ccccc3)(N3CCOCC3)CC2)c(C)c1 (stereo not drawn)

47
63

* * *

molecular target: human B1R receptor (hB1R) (Homo sapiens); construct: host or cells: CHO K1 cells; test: FLIPR Ca2+ assay on hB1R-transfected CHO K1 cells, antagonistic action; assay type: cell-based; settings: CHO-K1, 10 μM test substance; agonist Lys-Des-Arg9-bradykinin 0.5 nM; % of maximum achievable inhibition; read-out: hB1R [10 μM] % inhibition
Could you please report measured inhibition at 10 µM for the items listed next?
Answers are plain numbers, in %.

Example cases with answers are listed next.
compound="Cc1cccc(Cl)c1S(=O)(=O)N1c2ccccc2OCC1COCC(=O)N1CCC(c2cccc(F)c2)(N2CCN(C)CC2)CC1 (stereo not shown)" endpoint_name="inhibition at 10 µM" scale_unit=% test_result=97
compound=COc1cc(C)c(S(=O)(=O)N(C)CCOCC(=O)N2CCC(CCc3ccccc3)(N3CCN(C)CC3)CC2)c(C)c1 endpoint_name="inhibition at 10 µM" scale_unit=% test_result=99
compound="CN(CCCC1CCC(Cc2ccccc2)(N2CCCC2)CC1)C(=O)CC1CCCCN1S(=O)(=O)c1cccc(C(F)(F)F)c1 (stereo not shown)" endpoint_name="inhibition at 10 µM" scale_unit=% test_result=98

Okay, here is my list. What is inhibition at 10 µM for each of these?
1. COc1cc(C)c(S(=O)(=O)N(C)CCOCC(=O)N(C)CCC2CCC(Cc3ccccc3)(N(C)C)CC2)c(C)c1 (stereo not shown)
2. CN(CCOCC(=O)NC1CCC(Cc2ccccc2)(N2CCCC2)CC1)S(=O)(=O)c1ccc(Cl)cc1Cl (stereo not shown)
3. CN(CCCC1CCC(CCc2ccccc2)(N2CCCC2)CC1)C(=O)CC1CCCCN1S(=O)(=O)c1cccc(C(F)(F)F)c1 (stereo not shown)
4. CN(CCOCC(=O)NC1CCC(Cc2ccccc2)(N2CCCC2)CC1)S(=O)(=O)c1c(Cl)cc(Cl)cc1Cl (stereo not shown)

1: 103; 2: 93; 3: 102; 4: 65

* * *

target: human B1R receptor (hB1R) (Homo sapiens, UniProt P46663); construct: host or cells: CHO K1 cells; assay: FLIPR Ca2+ assay on hB1R-transfected CHO K1 cells, antagonistic action; format: cell-based; conditions: CHO-K1, 10 μM test substance; agonist Lys-Des-Arg9-bradykinin 0.5 nM; % of maximum achievable inhibition; read-out: hB1R [10 μM] % inhibition
Sequence (P46663 whole entry): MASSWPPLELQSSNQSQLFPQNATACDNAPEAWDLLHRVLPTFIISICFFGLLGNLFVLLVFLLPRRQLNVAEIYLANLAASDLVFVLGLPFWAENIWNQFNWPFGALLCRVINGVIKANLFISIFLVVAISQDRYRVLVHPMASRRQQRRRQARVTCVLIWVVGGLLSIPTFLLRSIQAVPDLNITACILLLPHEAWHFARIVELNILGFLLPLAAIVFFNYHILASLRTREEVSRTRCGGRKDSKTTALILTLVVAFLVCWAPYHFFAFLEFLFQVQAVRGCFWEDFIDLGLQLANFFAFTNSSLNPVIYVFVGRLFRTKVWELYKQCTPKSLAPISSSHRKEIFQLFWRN
endpoint_name: inhibition at 10 µM (%)
Give bare numbers, in %.

Example cases with answers are listed next.
compound="COc1cc(C)c(S(=O)(=O)N2CCCCC2COCC(=O)N(C)CC2CCC(CCc3ccccc3)(N3CCCC3)CC2)c(C)c1 (centres unmarked)" endpoint_name="inhibition at 10 µM" test_result=102
compound="COc1cc(C)c(S(=O)(=O)N2CCC(OCC(=O)NC3CCC(c4ccccc4)(N4CCCC4)CC3)C2)c(C)c1 (centres unmarked)" endpoint_name="inhibition at 10 µM" test_result=97
compound="CN1CCN(C2(c3ccc(F)cc3)CCN(C(=O)CC(NS(=O)(=O)c3ccc4ccccc4c3)c3ccccc3)CC2)CC1 (centres unmarked)" endpoint_name="inhibition at 10 µM" test_result=100

Okay, here is my list. What is inhibition at 10 µM for each of these?
1. COc1cc(C)c(S(=O)(=O)N(C)CCOCC(=O)N2CCC(c3ccccc3)(N(C)C)CC2)c(C)c1
2. CN(CC1CCC(CCc2ccccc2)(N2CCCC2)CC1)C(=O)CC1CCCCN1S(=O)(=O)c1cccc(C(F)(F)F)c1 (centres unmarked)
3. COc1cc(C)c(S(=O)(=O)N(C)CCOCC(=O)NC2CCC(c3ccccc3)(N3CCCCC3)CC2)c(C)c1 (centres unmarked)

[103, 98, 100]

Okay, here is my list. What is inhibition at 10 µM for each of these?
1. O=C(CC(NS(=O)(=O)c1ccc2ccccc2c1)c1ccccc1)N1CCC(c2ccccc2)(N2CCN(c3ccncc3)CC2)CC1 (centres unmarked)
2. O=C(COCC1CCc2ccccc2N1S(=O)(=O)c1ccc(Cl)c(Cl)c1)N1CCC(c2ccccc2)(N2CCN(c3ccncc3)CC2)CC1 (centres unmarked)
3. O=C(COC1CCN(S(=O)(=O)c2c(Cl)cc(Cl)cc2Cl)C1)NC1CCC(c2ccccc2)(N2CCCC2)CC1 (centres unmarked)
4. Cc1cc(C)c(S(=O)(=O)N2CCC(OCC(=O)NC3CCC(CCc4ccccc4)(N(C)C)CC3)C2)c(C)c1 (centres unmarked)
5. O=C(COC1CCCN(S(=O)(=O)c2c(Cl)cc(Cl)cc2Cl)C1)NC1CCC(c2ccccc2)(N2CCCC2)CC1 (centres unmarked)
6. CN(C)C1(c2ccccc2)CCC(NC(=O)CC2c3ccccc3CCN2S(=O)(=O)c2ccc(Cl)c(Cl)c2)CC1 (centres unmarked)
7. Cc1cc(S(=O)(=O)N2CCCCC2CCC(=O)N(C)CC2CCC(c3ccccc3)(N3CCCC3)CC2)c(C)cc1Cl (centres unmarked)
8. CN(CCC1CCC(c2ccccc2)(N(C)C)CC1)C(=O)CC(NS(=O)(=O)c1ccc2ccccc2c1)c1ccccc1 (centres unmarked)

72
51
53
61
96
84
103
97
